Tested on: HIV-1 containing L74V
assay.procedure: microbe, parasite or virus in culture
Type: cell-based
experimental.parameters: Human immunodeficiency virus 1, Lymphocyte
Overview of recorded EC50 for various molecules
Give the value, in units of nM, as a plain number.

Nc1nc(=O)n([C@@H]2CS[C@H](CO)O2)cc1F (relative stereo) [(−)FTC] | 200
O=C1Nc2ccc(Cl)cc2[C@@](C#CC2CC2)(C(F)(F)F)O1 | 60
Cc1cn([C@H]2C=C[C@@H](CO)O2)c(=O)[nH]c1=O [Compound D4T, 2′,3′-dideoxy-2′,3′-didehydrothymidine] | 900
Nc1ccn([C@@H]2CS[C@H](CO)O2)c(=O)n1 | 600
OC[C@@H]1CC[C@H](n2cnc3c(O)ncnc32)O1 | 13200

The measured EC50 associated with Cc1cn([C@H]2C[C@H](N=[N+]=[N-])[C@@H](CO)O2)c(=O)[nH]c1=O reads 20

The measured EC50 associated with N#CC[C@H](C1CCCC1)n1cc(-c2ncnc3[nH]ccc23)cn1 reads 100

---

Overview of recorded FI90 (ratio of EC90 against mutant virus:EC90 against wild-type xxLAI) for various compounds
System: HIV-1 containing K65R
assay.procedure: microbe, parasite or virus in culture
Assay type: cell-based
experimental.parameters: K65R
Structures can show the parent of a compound that is named as a salt.
Reply with the value as a number alone.

Recorded FI90 (ratio of EC90 against mutant virus:EC90 against wild-type xxLAI), per entry:
Nc1ccn([C@@H]2CS[C@H](CO)O2)c(=O)n1 | 1.9
Nc1nc(=O)n([C@@H]2CS[C@H](CO)O2)cc1F (relative stereo) [(−)FTC] | 2.9
O=C1Nc2ccc(Cl)cc2[C@@](C#CC2CC2)(C(F)(F)F)O1 | 0.1
CC(C)OC(=O)OCOP(=O)(CO[C@H](C)Cn1cnc2c(N)ncnc21)OCOC(=O)OC(C)C [TDF, Tenofovir disoproxil fumarate] | 1.7
Cc1cn([C@H]2C=C[C@@H](CO)O2)c(=O)[nH]c1=O [Compound D4T, 2′,3′-dideoxy-2′,3′-didehydrothymidine] | 1.2

The measured FI90 (ratio of EC90 against mutant virus:EC90 against wild-type xxLAI) associated with N#CC[C@H](C1CCCC1)n1cc(-c2ncnc3[nH]ccc23)cn1 reads 1.4

The measured FI90 (ratio of EC90 against mutant virus:EC90 against wild-type xxLAI) associated with OC[C@@H]1CC[C@H](n2cnc3c(O)ncnc32)O1 reads 1.6

---

Test system: HIV-1 containing K65R
assay.procedure: microbe, parasite or virus in culture
Assay type: cell-based
experimental.parameters: Human immunodeficiency virus 1, Lymphocyte
pEC50: −log10 of the molar value. Structures can show the parent of a compound that is named as a salt.
Given measured pEC50, output yes if it is greater than or equal to 7 and no if not.

Example entries and their recorded answers appear below.
Nc1ccn([C@@H]2CS[C@H](CO)O2)c(=O)n1 | no
O=C1Nc2ccc(Cl)cc2[C@@](C#CC2CC2)(C(F)(F)F)O1 | yes
Cc1cn([C@H]2C[C@H](N=[N+]=[N-])[C@@H](CO)O2)c(=O)[nH]c1=O | yes
Cc1cn([C@H]2C=C[C@@H](CO)O2)c(=O)[nH]c1=O [Compound D4T, 2′,3′-dideoxy-2′,3′-didehydrothymidine] | no
Nc1nc(=O)n([C@@H]2CS[C@H](CO)O2)cc1F (relative stereo) [(−)FTC] | no
OC[C@@H]1CC[C@H](n2cnc3c(O)ncnc32)O1 | no
N#CC[C@H](C1CCCC1)n1cc(-c2ncnc3[nH]ccc23)cn1 | no

With those in mind, consider the next compound.
Evaluate CC(C)OC(=O)OCOP(=O)(CO[C@H](C)Cn1cnc2c(N)ncnc21)OCOC(=O)OC(C)C [TDF, Tenofovir disoproxil fumarate] : pEC50 at minimum 7?
no
